testedSystem: CDK10/Cyclin L2 (Homo sapiens)
Sequence (Q15131 whole entry): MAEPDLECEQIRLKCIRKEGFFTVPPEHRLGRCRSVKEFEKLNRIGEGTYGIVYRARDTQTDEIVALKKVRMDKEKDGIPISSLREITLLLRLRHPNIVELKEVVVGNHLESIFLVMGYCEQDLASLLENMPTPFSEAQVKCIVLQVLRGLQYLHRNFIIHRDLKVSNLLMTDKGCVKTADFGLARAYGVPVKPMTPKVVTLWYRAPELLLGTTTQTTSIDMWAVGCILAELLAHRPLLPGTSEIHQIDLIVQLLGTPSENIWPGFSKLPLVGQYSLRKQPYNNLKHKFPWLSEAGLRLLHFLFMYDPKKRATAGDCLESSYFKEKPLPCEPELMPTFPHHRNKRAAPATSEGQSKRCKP
testDetails: NanoBRET live-cell target engagement, CDK10-NanoLuc/Cyclin L2 in HEK-293
reportedConditions: read-out: CDK10/L2 IC50; independent experiment 2
quantityKind: IC50 (nM)
Your answer is read as nM, so omit the unit and give the number.

For the molecule CN(C)C/C=C/C(=O)Nc1ccc(C(=O)Nc2cccc(Nc3ncc(Cl)c(-c4c[nH]c5ccccc45)n3)c2)cc1 , give its measured IC50 value.
790

* * *

testedSystem: CDK12/Cyclin K (Homo sapiens)
Sequence (Q9NYV4 1-1481 isoform Q9NYV4-2): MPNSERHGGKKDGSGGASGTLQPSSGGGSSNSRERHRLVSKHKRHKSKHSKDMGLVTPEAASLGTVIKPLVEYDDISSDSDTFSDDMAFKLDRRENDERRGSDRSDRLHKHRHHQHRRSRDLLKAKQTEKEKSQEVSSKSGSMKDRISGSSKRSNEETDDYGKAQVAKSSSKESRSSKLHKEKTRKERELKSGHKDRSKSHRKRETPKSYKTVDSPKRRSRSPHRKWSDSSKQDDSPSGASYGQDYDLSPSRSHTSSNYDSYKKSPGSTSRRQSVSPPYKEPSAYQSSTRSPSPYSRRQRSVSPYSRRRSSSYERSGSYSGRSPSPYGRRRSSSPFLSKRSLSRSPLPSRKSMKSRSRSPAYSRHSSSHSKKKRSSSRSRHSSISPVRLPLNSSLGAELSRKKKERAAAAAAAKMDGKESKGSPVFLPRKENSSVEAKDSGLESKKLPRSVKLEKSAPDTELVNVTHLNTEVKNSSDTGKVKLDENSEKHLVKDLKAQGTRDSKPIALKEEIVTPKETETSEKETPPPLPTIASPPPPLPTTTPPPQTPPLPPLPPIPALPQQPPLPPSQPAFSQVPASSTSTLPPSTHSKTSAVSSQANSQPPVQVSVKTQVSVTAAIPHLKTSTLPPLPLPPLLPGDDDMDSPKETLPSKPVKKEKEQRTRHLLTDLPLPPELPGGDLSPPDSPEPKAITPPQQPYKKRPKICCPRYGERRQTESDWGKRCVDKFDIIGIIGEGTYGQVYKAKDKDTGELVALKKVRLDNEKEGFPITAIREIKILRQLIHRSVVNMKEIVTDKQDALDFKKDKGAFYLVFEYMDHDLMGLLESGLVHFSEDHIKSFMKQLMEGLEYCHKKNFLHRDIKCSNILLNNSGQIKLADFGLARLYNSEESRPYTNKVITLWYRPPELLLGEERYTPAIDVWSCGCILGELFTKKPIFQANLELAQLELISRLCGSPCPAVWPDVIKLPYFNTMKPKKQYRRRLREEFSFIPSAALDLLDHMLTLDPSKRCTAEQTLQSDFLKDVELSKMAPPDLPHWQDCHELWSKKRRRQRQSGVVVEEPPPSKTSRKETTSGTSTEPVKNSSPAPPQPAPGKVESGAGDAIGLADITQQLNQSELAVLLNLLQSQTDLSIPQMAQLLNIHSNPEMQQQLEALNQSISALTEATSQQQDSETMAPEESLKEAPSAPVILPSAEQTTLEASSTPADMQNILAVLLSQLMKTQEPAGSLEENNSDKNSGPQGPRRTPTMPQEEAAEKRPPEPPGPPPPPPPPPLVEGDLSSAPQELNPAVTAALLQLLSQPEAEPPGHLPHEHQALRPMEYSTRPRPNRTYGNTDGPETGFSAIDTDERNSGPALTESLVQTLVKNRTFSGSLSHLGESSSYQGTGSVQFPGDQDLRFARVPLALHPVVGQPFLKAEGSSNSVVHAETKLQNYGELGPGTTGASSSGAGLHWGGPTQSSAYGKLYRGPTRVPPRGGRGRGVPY
Sequence (O75909 whole entry partner): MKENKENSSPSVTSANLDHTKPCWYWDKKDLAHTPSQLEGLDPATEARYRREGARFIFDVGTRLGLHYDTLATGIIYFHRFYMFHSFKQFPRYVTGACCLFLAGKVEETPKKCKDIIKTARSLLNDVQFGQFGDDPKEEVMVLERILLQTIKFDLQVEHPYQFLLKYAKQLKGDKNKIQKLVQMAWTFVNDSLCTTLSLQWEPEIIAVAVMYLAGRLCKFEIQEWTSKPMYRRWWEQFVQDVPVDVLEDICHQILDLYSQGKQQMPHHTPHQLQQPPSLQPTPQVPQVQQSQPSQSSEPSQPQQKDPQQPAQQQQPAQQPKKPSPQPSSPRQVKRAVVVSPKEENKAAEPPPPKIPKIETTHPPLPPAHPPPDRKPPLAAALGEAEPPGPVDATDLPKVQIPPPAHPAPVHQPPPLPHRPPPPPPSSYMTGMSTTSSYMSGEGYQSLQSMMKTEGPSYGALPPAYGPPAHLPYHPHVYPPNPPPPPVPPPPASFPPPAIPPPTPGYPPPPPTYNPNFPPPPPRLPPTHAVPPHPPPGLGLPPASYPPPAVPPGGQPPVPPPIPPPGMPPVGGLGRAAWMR
testDetails: NanoBRET live-cell target engagement, CDK12-NanoLuc/Cyclin K in HEK-293
Format: binding
reportedConditions: CDK12/K; 10µM
Each entry below lists one item and its recorded Inhibition at 10µM (%) Replicate 2 value.
Your answer is read as %, so omit the unit and give the number.

compound: O=C(Nc1c[nH]nc1-c1ccccn1)c1nn(C2CCNCC2)cc1Cl
quantityKind: Inhibition at 10µM (%) Replicate 2
valueReported: -2.0

compound: CNC1CCN(C(=O)c2ccc(Nc3ncc(F)c(-c4cnc(C)n4C(C)C)n3)cc2)C1 (stereo not shown)
quantityKind: Inhibition at 10µM (%) Replicate 2
valueReported: 42.5

compound: CC(C)c1cnn2c(NCc3ccccc3)cc(N[C@@H](CO)[C@H](O)CO)nc12
quantityKind: Inhibition at 10µM (%) Replicate 2
valueReported: 55.6

Would you kindly look at the next entry?
GET Inhibition at 10µM (%) Replicate 2 | system: CDK12/Cyclin K (Homo sapiens) | item: CCC(CO)Nc1nc(Nc2cccc(-c3ccccn3)c2)c2ncn(C(C)C)c2n1.Cl.O [(R) - DRF053]
-13.6

* * *

testedSystem: CDK8/Cyclin C (Homo sapiens, UniProt P49336)
Sequence (P49336 whole entry): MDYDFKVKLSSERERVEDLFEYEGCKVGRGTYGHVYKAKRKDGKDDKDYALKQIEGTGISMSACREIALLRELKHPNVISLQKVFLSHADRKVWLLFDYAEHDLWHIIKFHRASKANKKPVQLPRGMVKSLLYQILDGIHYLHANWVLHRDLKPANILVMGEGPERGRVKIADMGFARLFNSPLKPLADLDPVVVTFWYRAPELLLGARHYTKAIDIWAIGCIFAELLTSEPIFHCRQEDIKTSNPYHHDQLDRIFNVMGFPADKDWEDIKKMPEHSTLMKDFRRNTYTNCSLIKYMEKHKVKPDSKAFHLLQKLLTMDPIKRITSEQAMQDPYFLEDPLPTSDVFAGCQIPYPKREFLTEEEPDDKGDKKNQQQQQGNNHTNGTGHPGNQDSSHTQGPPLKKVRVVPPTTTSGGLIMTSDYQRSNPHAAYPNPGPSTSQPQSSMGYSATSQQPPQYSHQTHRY
Sequence (P24863 whole entry partner): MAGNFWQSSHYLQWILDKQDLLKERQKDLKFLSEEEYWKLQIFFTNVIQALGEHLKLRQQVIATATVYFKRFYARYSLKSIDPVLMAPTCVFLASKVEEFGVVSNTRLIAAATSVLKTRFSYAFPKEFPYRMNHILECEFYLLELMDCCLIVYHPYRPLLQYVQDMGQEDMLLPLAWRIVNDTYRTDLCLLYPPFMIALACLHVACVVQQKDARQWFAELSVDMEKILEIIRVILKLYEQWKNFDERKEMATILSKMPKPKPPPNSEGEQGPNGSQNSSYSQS
testDetails: NanoBRET live-cell target engagement, NanoLuc-CDK8/Cyclin C in HEK-293
Format: binding
reportedConditions: CDK8/C; experiment 1; read-out: Inhibition at 10µM (%)
quantityKind: inhibition at 10 µM (%)
Your answer is read as %, so omit the unit and give the number.

molecule: CC(C)c1cnn2c(NCc3ccccc3)cc(NC[C@H]3CCNC[C@@H]3O)nc12
valueReported: 5.3

For the molecule COc1ccc(F)cc1-c1cc(NC(=O)C2CCCNC2)ncc1Cl (stereo not shown) , give its measured inhibition at 10 µM value.
65.9

For the molecule CNC(=O)c1nn(C)c2c1C(C)(C)Cc1cnc(Nc3ccc(N4CCN(C)CC4)cc3)nc1-2 , give its measured inhibition at 10 µM value.
44.2

For the molecule CN1CC[C@H](c2c(O)cc(O)c3c(=O)cc(-c4ccccc4Cl)oc23)[C@H](O)C1 , give its measured inhibition at 10 µM value.
96.6

* * *

testedSystem: CDK6/Cyclin D1 (Homo sapiens)
Sequence (Q00534 whole entry): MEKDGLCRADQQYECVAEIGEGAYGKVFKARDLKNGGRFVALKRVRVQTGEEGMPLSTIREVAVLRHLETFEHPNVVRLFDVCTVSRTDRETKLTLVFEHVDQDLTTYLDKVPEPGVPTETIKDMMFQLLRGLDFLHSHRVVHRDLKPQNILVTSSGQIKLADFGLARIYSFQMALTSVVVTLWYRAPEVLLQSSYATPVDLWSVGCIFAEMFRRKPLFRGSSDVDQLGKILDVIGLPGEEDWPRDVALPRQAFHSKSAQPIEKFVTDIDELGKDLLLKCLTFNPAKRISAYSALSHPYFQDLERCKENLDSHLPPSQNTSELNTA
Sequence (P24385 whole entry partner): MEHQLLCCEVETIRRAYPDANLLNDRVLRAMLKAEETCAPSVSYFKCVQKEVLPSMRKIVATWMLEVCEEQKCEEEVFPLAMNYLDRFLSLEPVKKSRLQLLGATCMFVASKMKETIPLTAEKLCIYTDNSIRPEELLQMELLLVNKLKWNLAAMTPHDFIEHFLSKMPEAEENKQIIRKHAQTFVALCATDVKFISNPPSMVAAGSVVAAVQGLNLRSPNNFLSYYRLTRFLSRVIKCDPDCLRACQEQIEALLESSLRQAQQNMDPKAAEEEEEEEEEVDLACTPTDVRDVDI
testDetails: NanoBRET live-cell target engagement, NanoLuc-CDK6/Cyclin D1 in HEK-293
Type: binding
reportedConditions: CDK6/D1; experiment 1; read-out: Inhibition at 10µM (%)
quantityKind: inhibition at 10 µM (%)
Your answer is read as %, so omit the unit and give the number.

In the examples that follow, each entry is paired with its recorded inhibition at 10 µM.
compound: CN1CC[C@H](c2c(O)cc(O)c3c(=O)cc(-c4ccccc4Cl)oc23)[C@H](O)C1 [Flavopiridol]
unitOfMeasure: %
inhibition at 10 µM: 83.3
//
compound: Cn1cc(-c2ccc(-c3cncc(Cl)c3N3CCC4(CCNC4=O)CC3)cc2)cn1 [CCT251545]
unitOfMeasure: %
inhibition at 10 µM: -11.6

Would you kindly look at the next entry?
For the compound CNC(=O)c1nn(C)c2c1C(C)(C)Cc1cnc(Nc3ccc(N4CCN(C)CC4)cc3)nc1-2 [Milciclib] , give its measured inhibition at 10 µM value.
96.1
